Would you kindly list AC50 for each of these molecules?
# TEST SYSTEM: Glycogen synthase kinase-3 beta (Homo sapiens) (UniProt P49841)
# Sequence (P49841 whole entry, looked up): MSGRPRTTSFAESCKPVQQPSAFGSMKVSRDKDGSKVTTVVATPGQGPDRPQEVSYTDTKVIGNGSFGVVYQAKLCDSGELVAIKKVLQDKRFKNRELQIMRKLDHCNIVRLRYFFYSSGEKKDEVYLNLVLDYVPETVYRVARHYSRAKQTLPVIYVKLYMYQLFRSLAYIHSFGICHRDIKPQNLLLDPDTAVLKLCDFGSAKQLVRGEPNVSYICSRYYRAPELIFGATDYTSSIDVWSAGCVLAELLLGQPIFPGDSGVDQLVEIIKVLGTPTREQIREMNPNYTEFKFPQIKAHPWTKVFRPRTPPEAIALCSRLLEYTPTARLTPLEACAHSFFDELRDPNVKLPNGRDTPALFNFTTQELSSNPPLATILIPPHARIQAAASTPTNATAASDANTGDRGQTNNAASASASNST
# TEST SUMMARY: GSK3beta kinase inhibitors, SAR follow-up, biochemical, ADP-Glo luminescence, dry powder samples (AID 623998)
# TEST PARAMETERS: GSK3beta ADP-Glo luminescence kinase assay, 60 min
Results filed as inconclusive are left out.

Task item: What AC50 appears in the records for this molecule with Glycogen synthase kinase-3 beta (Homo sapiens) (UniProt P49841)? COc1ccccc1C1C2=C(CCCC2=O)Nc2n[nH]c(C)c21 (configuration not stated)
Reply: 3420 nM

Task item: Item COc1ccc(C2C3=C(CC(C)(C)CC3=O)Nc3n[nH]c(C)c32)cc1 (configuration not stated) with Glycogen synthase kinase-3 beta (Homo sapiens) (UniProt P49841) - AC50?
Reply: 14700 nM

Task item: Lab request: please report AC50 under test system Glycogen synthase kinase-3 beta (Homo sapiens) (UniProt P49841) for COc1ccccc1C1C2=C(CCC(C)(C)C2=O)Nc2n[nH]c(C)c21 (configuration not stated)
Reply: 515 nM

Task item: Under Glycogen synthase kinase-3 beta (Homo sapiens) (UniProt P49841): AC50 value of Cc1[nH]nc2c1C(c1ccc(Br)cn1)C1=C(CC(C)(C)CC1=O)N2 (configuration not stated) ?
Reply: 4990 nM

Task item: Request: AC50, test system Glycogen synthase kinase-3 beta (Homo sapiens) (UniProt P49841), entry Cc1[nH]nc2c1C(c1cccc(C#N)c1)C1=C(CC(C)(C)CC1=O)N2 (configuration not stated)
Reply: 52.3 nM

Task item: # get_value(readout= AC50, system= Glycogen synthase kinase-3 beta (Homo sapiens) (UniProt P49841)) for CCc1[nH]nc2c1C(c1ccccc1OC)C1=C(CC(C)(C)CC1=O)N2 (configuration not stated)
Reply: 83.3 nM

Task item: Notebook: pull reported AC50 for Glycogen synthase kinase-3 beta (Homo sapiens) (UniProt P49841), entry Cc1[nH]nc2c1C(c1ccc3c(c1)OCO3)C1=C(CC(C)(C)CC1=O)N2 (configuration not stated)
Reply: 4610 nM

Task item: Short answer please: AC50, Glycogen synthase kinase-3 beta (Homo sapiens) (UniProt P49841), entry "CC1(C)CC(=O)/C(=C\c2cccc(F)c2C(F)(F)F)C(=Nc2cc(C(F)(F)F)[nH]n2)C1"
Reply: 2630 nM

Task item: Any idea what AC50 came out for "COc1cccc(-c2nn(-c3ccccc3)cc2/C=N/O)c1" on Glycogen synthase kinase-3 beta (Homo sapiens) (UniProt P49841)?
Reply: 1760 nM

Task item: Any idea what AC50 came out for Cc1[nH]nc2c1C(c1ccc(F)cc1)C1=C(CC(C)(C)CC1=O)N2 (configuration not stated) on Glycogen synthase kinase-3 beta (Homo sapiens) (UniProt P49841)?
Reply: 2960 nM

Task item: Please provide the recorded AC50 for Cc1[nH]nc2c1C(c1cccnc1)C1=C(CC(C)(C)CC1=O)N2 (configuration not stated) , tested on Glycogen synthase kinase-3 beta (Homo sapiens) (UniProt P49841).
Reply: 408 nM

Task item: Which measured AC50 belongs to "COc1ccccc1[C@@H]1C2=C(CC(C)(C)CC2=O)Nc2n[nH]c(C(F)(F)F)c21" , tested on Glycogen synthase kinase-3 beta (Homo sapiens) (UniProt P49841)?
Reply: 23.8 nM

Task item: For Glycogen synthase kinase-3 beta (Homo sapiens) (UniProt P49841), provide AC50 of Cc1[nH]nc2c1C(C)C1=C(CC(C)(C)CC1=O)N2 (configuration not stated) please.
Reply: 534 nM

Task item: Record "Cc1[nH]nc2c1[C@H](c1cccs1)C1=C(CC(C)(C)CC1=O)N2" : what is its AC50 with Glycogen synthase kinase-3 beta (Homo sapiens) (UniProt P49841)?
Reply: 11600 nM

Task item: For Glycogen synthase kinase-3 beta (Homo sapiens) (UniProt P49841), provide AC50 of COc1ccccc1C1C2=C(CC(C)(C)CC2=O)Nc2n[nH]c(C)c21 (configuration not stated) please.
Reply: 124 nM

Task item: Query for Glycogen synthase kinase-3 beta (Homo sapiens) (UniProt P49841): what AC50 does the record show for Cc1[nH]nc2c1C(c1ccc(F)cc1Cl)C1=C(CC(C)(C)CC1=O)N2 (configuration not stated) ?
Reply: 2290 nM

Task item: Query for Glycogen synthase kinase-3 beta (Homo sapiens) (UniProt P49841): what AC50 does the record show for Cc1[nH]nc2c1C(c1ccccc1Cl)C1=C(CC(C)(C)CC1=O)N2 (configuration not stated) ?
Reply: 300 nM

Task item: # returns recorded AC50 (system: Glycogen synthase kinase-3 beta (Homo sapiens) (UniProt P49841)) for CSc1ccccc1C1C2=C(CC(C)(C)CC2=O)Nc2n[nH]c(C)c21 (configuration not stated)
Reply: 32.4 nM

Task item: Form entry - test system: Glycogen synthase kinase-3 beta (Homo sapiens) (UniProt P49841); read-out: AC50; molecule: Cc1[nH]nc2c1C(c1cccc(Cl)c1)C1=C(CC(C)(C)CC1=O)N2 (configuration not stated)
Reply: 919 nM

Task item: So what AC50 did "Cc1[nH]nc2nc3c(c(-c4cccs4)c12)C(=O)CC(C)(C)C3" get with Glycogen synthase kinase-3 beta (Homo sapiens) (UniProt P49841)?
Reply: 28100 nM

Task item: For Glycogen synthase kinase-3 beta (Homo sapiens) (UniProt P49841), provide AC50 of COc1ccccc1C1C2=C(CC(C)(C)CC2=O)Nc2n[nH]c(C(C)C)c21 (configuration not stated) please.
Reply: 415 nM

Task item: Look up AC50 with Glycogen synthase kinase-3 beta (Homo sapiens) (UniProt P49841) for this molecule: Cc1[nH]nc2c1C(C1CC1)C1=C(CC(C)(C)CC1=O)N2 (configuration not stated)
Reply: 3050 nM

Task item: Provide value of AC50 for this record tested with Glycogen synthase kinase-3 beta (Homo sapiens) (UniProt P49841): Cc1[nH]nc2c1C(C)(c1ccccc1)C1=C(CC(C)(C)CC1=O)N2 (configuration not stated)
Reply: 308 nM

Task item: Request body: readout AC50, system Glycogen synthase kinase-3 beta (Homo sapiens) (UniProt P49841), query COc1ccccc1C1C2=C(CC3(CCCCC3)CC2=O)Nc2n[nH]c(C)c21 (configuration not stated) . Return the value.
Reply: 278 nM

Task item: What AC50 appears in the records for this molecule with Glycogen synthase kinase-3 beta (Homo sapiens) (UniProt P49841)? Cc1[nH]nc2c1C(c1cccc(C(F)(F)F)c1)C1=C(CC(C)(C)CC1=O)N2 (configuration not stated)
Reply: 199 nM

Task item: Provide the documented AC50 with Glycogen synthase kinase-3 beta (Homo sapiens) (UniProt P49841) as the system for CC1(C)CC(=O)C2=C(C1)Nc1n[nH]c(C(F)(F)F)c1C2c1ccccc1 (configuration not stated)
Reply: 35.7 nM

Task item: What value of AC50 on Glycogen synthase kinase-3 beta (Homo sapiens) (UniProt P49841) does COc1ccccc1C1C2=C(CC(C)(C)CC2=O)Nc2n[nH]c(-c3ccccc3)c21 (configuration not stated) have?
Reply: 1550 nM
